- SYSTEM NAME: AMPK 111 (Homo sapiens, UniProt Q13131+Q9Y478)
- Construct: open reading frames encoding the full-length α1, β1 and δ1 subunits of human AMPK
- Sequence (Q13131 whole entry): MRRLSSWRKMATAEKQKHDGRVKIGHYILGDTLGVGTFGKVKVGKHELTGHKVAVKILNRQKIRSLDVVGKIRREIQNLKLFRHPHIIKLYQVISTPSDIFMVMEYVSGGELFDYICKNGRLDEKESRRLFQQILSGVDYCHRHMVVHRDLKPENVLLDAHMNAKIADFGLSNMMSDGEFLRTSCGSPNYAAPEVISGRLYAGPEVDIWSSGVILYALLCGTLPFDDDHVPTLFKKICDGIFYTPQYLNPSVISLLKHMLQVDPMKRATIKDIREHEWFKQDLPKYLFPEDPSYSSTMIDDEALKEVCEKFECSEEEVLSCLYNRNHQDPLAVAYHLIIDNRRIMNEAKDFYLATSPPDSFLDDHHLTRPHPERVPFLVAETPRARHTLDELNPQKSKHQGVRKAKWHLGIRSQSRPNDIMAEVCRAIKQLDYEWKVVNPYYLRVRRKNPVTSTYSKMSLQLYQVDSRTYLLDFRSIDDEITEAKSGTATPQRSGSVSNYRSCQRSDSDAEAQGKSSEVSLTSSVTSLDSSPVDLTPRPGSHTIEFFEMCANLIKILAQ
- Sequence (Q9Y478 whole entry): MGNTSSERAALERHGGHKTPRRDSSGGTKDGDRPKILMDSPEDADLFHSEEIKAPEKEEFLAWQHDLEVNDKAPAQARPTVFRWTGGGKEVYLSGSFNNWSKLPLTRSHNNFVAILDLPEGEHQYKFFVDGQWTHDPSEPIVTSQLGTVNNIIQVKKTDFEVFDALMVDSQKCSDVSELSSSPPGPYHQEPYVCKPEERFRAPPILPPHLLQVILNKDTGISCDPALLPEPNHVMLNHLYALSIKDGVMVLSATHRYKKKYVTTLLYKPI
- Sequence (P54619 whole entry partner): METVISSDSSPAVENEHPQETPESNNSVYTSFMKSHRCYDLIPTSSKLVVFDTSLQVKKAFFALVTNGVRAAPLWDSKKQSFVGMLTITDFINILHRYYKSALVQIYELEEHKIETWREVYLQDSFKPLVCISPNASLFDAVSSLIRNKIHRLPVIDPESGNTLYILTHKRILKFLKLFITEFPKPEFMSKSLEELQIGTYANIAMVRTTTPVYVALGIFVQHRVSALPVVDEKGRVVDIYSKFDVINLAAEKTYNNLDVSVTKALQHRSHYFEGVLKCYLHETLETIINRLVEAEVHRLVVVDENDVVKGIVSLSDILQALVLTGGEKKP
- MEASUREMENT PROTOCOL: Biochemical profiling of AMPK activators by AMPK111 (HTRF/TR-FRET assay, SAMS peptide, PP2A dephosphorylation protection)
- CONDITIONS USED: phosphorylated AMPK 111 (α1β1δ1 as printed); 11 point dilution, duplicate; 4-parameter fit
MEASURED PROPERTY: EC50 (nM)
Answer in nM, number only, no unit symbol.

Examples with answers:
Item `CNC(=O)c1ccc(-c2ccc(-c3cc4c(CCC(=O)O)n[nH]c4cc3Cl)cc2)c(O)c1` was tested on AMPK 111 (Homo sapiens, UniProt Q13131+Q9Y478); the reported EC50 is 2

Item `NS(=O)(=O)c1ccc(-c2ccc(-c3cc4c(CCC(=O)O)n[nH]c4cc3Cl)cc2)c(O)c1` was tested on AMPK 111 (Homo sapiens, UniProt Q13131+Q9Y478); the reported EC50 is 11

Item `CC(=O)NCc1ccc(-c2ccc(-c3cc4c(CCC(=O)O)n[nH]c4cc3Cl)cc2)cc1` was tested on AMPK 111 (Homo sapiens, UniProt Q13131+Q9Y478); the reported EC50 is 70

Item `O=C(O)CCc1n[nH]c2cc(Cl)c(-c3ccc(-c4cc(F)ccc4O)cc3)cc12` was tested on AMPK 111 (Homo sapiens, UniProt Q13131+Q9Y478); the reported EC50 is 285

Item `N#Cc1cc2[nH]nc(CCC(=O)O)c2cc1-c1ccc(-c2ccccc2O)cc1` was tested on AMPK 111 (Homo sapiens, UniProt Q13131+Q9Y478); the reported EC50 is 137

Others:
Item `O=C(O)CCc1n[nH]c2cc(Cl)c(-c3ccc(-c4c(Cl)ccc(F)c4O)cc3)cc12` was tested on AMPK 111 (Homo sapiens, UniProt Q13131+Q9Y478); the reported EC50 is 69

Item `O=C(O)CCc1n[nH]c2cc(Cl)c(-c3ccc(-c4ccc(OC(F)F)cc4O)cc3)cc12` was tested on AMPK 111 (Homo sapiens, UniProt Q13131+Q9Y478); the reported EC50 is 480

Item `NC(=O)COc1ccc(-c2ccc(-c3cc4c(CCC(=O)O)n[nH]c4cc3Cl)cc2)cc1` was tested on AMPK 111 (Homo sapiens, UniProt Q13131+Q9Y478); the reported EC50 is 99

Item `O=C(O)CCc1n[nH]c2cc(Cl)c(-c3ccc(-c4csc(CO)c4)cc3)cc12` was tested on AMPK 111 (Homo sapiens, UniProt Q13131+Q9Y478); the reported EC50 is 215

Item `CS(=O)(=O)Nc1ccc(-c2ccc(-c3cc4c(CCC(=O)O)n[nH]c4cc3Cl)cc2)cc1` was tested on AMPK 111 (Homo sapiens, UniProt Q13131+Q9Y478); the reported EC50 is 136

Item `O=C(O)CNc1n[nH]c2cc(Cl)c(-c3ccc(-c4ccccc4O)cc3)cc12` was tested on AMPK 111 (Homo sapiens, UniProt Q13131+Q9Y478); the reported EC50 is 54

Item `O=C(O)CCc1n[nH]c2cc(Cl)c(-c3ccc(-c4ccccc4)cc3)cc12` was tested on AMPK 111 (Homo sapiens, UniProt Q13131+Q9Y478); the reported EC50 is 312

Item `O=C(O)CCc1n[nH]c2cc(Cl)c(-c3ccc(-c4ccccc4O)cc3)nc12` was tested on AMPK 111 (Homo sapiens, UniProt Q13131+Q9Y478); the reported EC50 is 26

Item `O=C(O)CCc1n[nH]c2cc(Cl)c(-c3ccc(-c4cccc(OC(F)F)c4O)cc3)cc12` was tested on AMPK 111 (Homo sapiens, UniProt Q13131+Q9Y478); the reported EC50 is 103

Item `O=C(O)CCc1n[nH]c2cc(Cl)c(-c3ccc(-c4ccncc4O)cc3)cc12` was tested on AMPK 111 (Homo sapiens, UniProt Q13131+Q9Y478); the reported EC50 is 90

Item `O=C(O)CCc1n[nH]c2cc(Cl)c(-c3ccc(-c4ccc(C(=O)O)cc4O)cc3)cc12` was tested on AMPK 111 (Homo sapiens, UniProt Q13131+Q9Y478); the reported EC50 is 45

Item `Cc1ccccc1-c1ccc(-c2cc3c(CCC(=O)O)n[nH]c3cc2Cl)cc1` was tested on AMPK 111 (Homo sapiens, UniProt Q13131+Q9Y478); the reported EC50 is 365
